- assay details: Chemical stability in simulated gastric fluid assessed as compound remaining after 10 mins at pH 1.2 at 37 degC
- Type: ADME, physicochemical, Stomach
- condition summary: read-out: Stability

{"compound": "O=C1NC(O)CCN1[C@@H]1O[C@H](CO)[C@@H](O)[C@H]1O (mixture of isomers) [TETRAHYDROURIDINE]", "remaining at 10 min [%]": 50}
